- study-target: human adenosine receptor (adenosine 1) (Homo sapiens, UniProt P30542)
- Sequence (P30542 whole entry): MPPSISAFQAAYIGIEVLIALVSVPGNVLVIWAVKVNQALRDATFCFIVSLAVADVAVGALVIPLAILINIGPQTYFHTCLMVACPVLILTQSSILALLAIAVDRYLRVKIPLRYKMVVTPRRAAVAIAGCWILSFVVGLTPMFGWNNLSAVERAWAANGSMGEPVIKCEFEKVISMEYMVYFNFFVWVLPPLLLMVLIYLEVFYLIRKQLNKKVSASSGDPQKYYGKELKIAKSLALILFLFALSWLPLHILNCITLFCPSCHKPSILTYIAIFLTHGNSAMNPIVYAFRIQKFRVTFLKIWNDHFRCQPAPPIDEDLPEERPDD
- method-description: Agonist activity against adenosine 1 receptor subtype (CHO cells, cAMP response element/SPAP reporter)
- Format: cell-based
- setup-conditions: transfected CHO cells; effect on forskolin-enhanced cAMP reflected by SPAP; ratio to NECA
Hi! Could you tag entries with A1; EC50 values as a ratio of that of NECA below 1000 as yes (1), and those at or above as no (0)? Much appreciated.

{"smiles-repr": "O=CO.OC[C@H](Cc1ccccc1)Nc1nc(NCC(c2ccccc2)c2ccccc2)c2ncn([C@@H]3O[C@H](c4nnc[nH]4)[C@@H](O)[C@H]3O)c2n1", "class": "yes (1)"}

Is A1; EC50 values as a ratio of that of NECA strictly under 1000 for the entry `N=C(N)NCCNc1nc(NCC(c2ccccc2)c2ccccc2)c2ncn([C@@H]3O[C@H](c4nnc[nH]4)[C@@H](O)[C@H]3O)c2n1.O=CO` ?
no (0)

Could you please tell me whether A1; EC50 values as a ratio of that of NECA recorded for `CC(C)[C@@H](CO)Nc1nc(NCC(c2ccccc2)c2ccccc2)c2ncn([C@@H]3O[C@H](c4nnc[nH]4)[C@@H](O)[C@H]3O)c2n1.O=CO` is less than 1000?
yes (1)

A1; EC50 values as a ratio of that of NECA strictly < 1000 for this compound? `O=CO.O[C@@H]1[C@H](O)[C@@H](c2nnc[nH]2)O[C@H]1n1cnc2c(NCC(c3ccccc3)c3ccccc3)nc(NCCN3CCCCC3)nc21`
yes (1)

Identify whether the compound `O=CO.O[C@@H]1[C@H](O)[C@@H](c2nnc[nH]2)O[C@H]1n1cnc2c(NCC(c3ccccc3)c3ccccc3)nc(NCCc3ccccn3)nc21` records A1; EC50 values as a ratio of that of NECA below 1000.
no (0)

is_below(A1; EC50 values as a ratio of that of NECA, 1000) for `O=CO.O[C@@H]1[C@H](O)[C@@H](c2nnc[nH]2)O[C@H]1n1cnc2c(NCC(c3ccccc3)c3ccccc3)nc(NC3CCCC3)nc21` ?
no (0)

Consider `N[C@H]1CC[C@H](Nc2nc(NCC(c3ccccc3)c3ccccc3)c3ncn([C@@H]4O[C@H](c5nnc[nH]5)[C@@H](O)[C@H]4O)c3n2)CC1.O=CO` . Does its A1; EC50 values as a ratio of that of NECA lie strictly below 1000?
no (0)

Just wondering, is A1; EC50 values as a ratio of that of NECA of `O=CO.O[C@@H]1[C@H](O)[C@@H](c2nnc[nH]2)O[C@H]1n1cnc2c(NCC(c3ccccc3)c3ccccc3)nc(N[C@@H]3CCNC3)nc21` below 1000?
yes (1)
